Recorded values, source patent US20040018971A1.

Catalogue of IC50 values
# assayed_target: T1, HLA-DRB5*0101 (human)
# T1 construct: purified MHC class II molecule; also called DR2w2β2
# protocol_description: competition with 125I-labelled standard peptide, purified HLA-DR, gel filtration
endpoint: IC50 (nM)

DEAYVMAGVGSPYVS [Her2/neu.769]	833
QMRILKETELRKVKV [Her2/neu.711]	34
